System: OC43
ASSAY_METHOD_TEXT: Drug screening: OC43 nucleoprotein staining in infected A549-mRuby cells
Assay type: cell-based, human beta coronavirus OC43
MEASUREMENT_SETUP: Betacoronavirus 1, OC43, 96 h, 10 μM drug, MOI 0.3, 4 days; normalized to no-drug controls in the same plate; repeat #1; read-out: OC43_1: % staining of OC43 in screen repeat #1
Counter-ions that a name gives are not always drawn.
TEST_READOUT: activity at 10 µM (%)

{"columns": ["COMPOUND", "MEASURED_TARGET", "TEST_READOUT", "READOUT_UNIT", "ENDPOINT_VALUE"],
 "data": [
  ["CN(C)CCC=C1c2ccccc2C=Cc2ccccc21 [Cyclobenzaprine HCl]", "OC43", "activity at 10 µM", "%", 45.2],
  ["CC(C)NCC(O)COc1cccc2ccccc12 (stereo not shown) [Propranolol HCl]", "OC43", "activity at 10 µM", "%", 21.6],
  ["CN(C)CCC=C1c2ccccc2CCc2ccccc21 [Amitriptyline HCl]", "OC43", "activity at 10 µM", "%", 11.2],
  ["CCCOC(C(=O)OC1CCN(C)CC1)(c1ccccc1)c1ccccc1 [Propiverine hydrochloride]", "OC43", "activity at 10 µM", "%", 29.5],
  ["COc1cc(N)c(Cl)cc1C(=O)NC1CCN(CCCOc2ccc(F)cc2)CC1OC (stereo not shown) [Cisapride]", "OC43", "activity at 10 µM", "%", 28.5],
  ["CN1CCC(COc2cnc(-c3cccc(Cn4nc(-c5cccc(C#N)c5)ccc4=O)c3)nc2)CC1 [Tepotinib (EMD 1214063), Tepotinib]", "OC43", "activity at 10 µM", "%", 15.3],
  ["O.O=C(c1ccc(OCCN2CCCCC2)cc1)c1c(-c2ccc(O)cc2)sc2cc(O)ccc12 [Raloxifene HCl]", "OC43", "activity at 10 µM", "%", 9.4],
  ["N=C(N)N/N=C/c1c(Cl)cccc1Cl [Guanabenz Acetate]", "OC43", "activity at 10 µM", "%", 31.1],
  ["CN(C)N(C)C(=O)[C@@]1(Cc2ccccc2)CCCN(C(=O)[C@@H](Cc2c[nH]c3ccccc23)NC(=O)C(C)(C)N)C1 [Anamorelin]", "OC43", "activity at 10 µM", "%", 32],
  ["C=C[C@]1(C)C[C@@H](OC(=O)CSC(C)(C)CNC(=O)[C@H](N)C(C)C)[C@]2(C)[C@H](C)CC[C@]3(CCC(=O)[C@H]32)[C@@H](C)[C@@H]1O [Valnemulin HCl]", "OC43", "activity at 10 µM", "%", 27.7],
  ["CC[C@H]1OC(=O)[C@H](C)[C@@H](O[C@H]2C[C@@](C)(OC)[C@@H](O)[C@H](C)O2)[C@H](C)[C@@H](O[C@@H]2O[C@H](C)C[C@H](N(C)C)[C@H]2O)[C@](C)(O)C[C@@H](C)/C(=N\\OCOCCOC)[C@H](C)[C@@H](O)[C@]1(C)O [Roxithromycin]", "OC43", "activity at 10 µM", "%", 55.8],
  ["CN1C2CCC1CC(OC(c1ccccc1)c1ccccc1)C2.CS(=O)(=O)O (stereo not shown) [Benztropine mesylate]", "OC43", "activity at 10 µM", "%", 7.4],
  ["CCCNCC(O)COc1ccccc1C(=O)CCc1ccccc1.O (stereo not shown) [Propafenone HCl]", "OC43", "activity at 10 µM", "%", 20.4],
  ["CCOC(=O)N[C@@H]1CC[C@@H]2[C@@H](C1)C[C@H]1C(=O)O[C@H](C)[C@H]1[C@H]2/C=C/c1ccc(-c2cccc(F)c2)cn1 [Vorapaxar]", "OC43", "activity at 10 µM", "%", 53.5],
  ["CC(CN1c2ccccc2Sc2ccccc21)N(C)C (stereo not shown) [Promethazine HCl]", "OC43", "activity at 10 µM", "%", 19.4],
  ["COc1cc2ncnc(Nc3ccc(F)c(Cl)c3)c2cc1OCCCN1CCOCC1 [Gefitinib hydrochloride]", "OC43", "activity at 10 µM", "%", 20]
]}
